Value source: patent US20250051344A1

// reported Dmax for each item listed
biological target: SMARCA2 (Homo sapiens, UniProt P51531); construct: endogenous in cells; test: SMARCA2 Cellular Degradation Assay (Western blot analysis on Jess platform); type: cell-based; conditions: cellular degradation
Sequence (P51531 whole entry, species assumed): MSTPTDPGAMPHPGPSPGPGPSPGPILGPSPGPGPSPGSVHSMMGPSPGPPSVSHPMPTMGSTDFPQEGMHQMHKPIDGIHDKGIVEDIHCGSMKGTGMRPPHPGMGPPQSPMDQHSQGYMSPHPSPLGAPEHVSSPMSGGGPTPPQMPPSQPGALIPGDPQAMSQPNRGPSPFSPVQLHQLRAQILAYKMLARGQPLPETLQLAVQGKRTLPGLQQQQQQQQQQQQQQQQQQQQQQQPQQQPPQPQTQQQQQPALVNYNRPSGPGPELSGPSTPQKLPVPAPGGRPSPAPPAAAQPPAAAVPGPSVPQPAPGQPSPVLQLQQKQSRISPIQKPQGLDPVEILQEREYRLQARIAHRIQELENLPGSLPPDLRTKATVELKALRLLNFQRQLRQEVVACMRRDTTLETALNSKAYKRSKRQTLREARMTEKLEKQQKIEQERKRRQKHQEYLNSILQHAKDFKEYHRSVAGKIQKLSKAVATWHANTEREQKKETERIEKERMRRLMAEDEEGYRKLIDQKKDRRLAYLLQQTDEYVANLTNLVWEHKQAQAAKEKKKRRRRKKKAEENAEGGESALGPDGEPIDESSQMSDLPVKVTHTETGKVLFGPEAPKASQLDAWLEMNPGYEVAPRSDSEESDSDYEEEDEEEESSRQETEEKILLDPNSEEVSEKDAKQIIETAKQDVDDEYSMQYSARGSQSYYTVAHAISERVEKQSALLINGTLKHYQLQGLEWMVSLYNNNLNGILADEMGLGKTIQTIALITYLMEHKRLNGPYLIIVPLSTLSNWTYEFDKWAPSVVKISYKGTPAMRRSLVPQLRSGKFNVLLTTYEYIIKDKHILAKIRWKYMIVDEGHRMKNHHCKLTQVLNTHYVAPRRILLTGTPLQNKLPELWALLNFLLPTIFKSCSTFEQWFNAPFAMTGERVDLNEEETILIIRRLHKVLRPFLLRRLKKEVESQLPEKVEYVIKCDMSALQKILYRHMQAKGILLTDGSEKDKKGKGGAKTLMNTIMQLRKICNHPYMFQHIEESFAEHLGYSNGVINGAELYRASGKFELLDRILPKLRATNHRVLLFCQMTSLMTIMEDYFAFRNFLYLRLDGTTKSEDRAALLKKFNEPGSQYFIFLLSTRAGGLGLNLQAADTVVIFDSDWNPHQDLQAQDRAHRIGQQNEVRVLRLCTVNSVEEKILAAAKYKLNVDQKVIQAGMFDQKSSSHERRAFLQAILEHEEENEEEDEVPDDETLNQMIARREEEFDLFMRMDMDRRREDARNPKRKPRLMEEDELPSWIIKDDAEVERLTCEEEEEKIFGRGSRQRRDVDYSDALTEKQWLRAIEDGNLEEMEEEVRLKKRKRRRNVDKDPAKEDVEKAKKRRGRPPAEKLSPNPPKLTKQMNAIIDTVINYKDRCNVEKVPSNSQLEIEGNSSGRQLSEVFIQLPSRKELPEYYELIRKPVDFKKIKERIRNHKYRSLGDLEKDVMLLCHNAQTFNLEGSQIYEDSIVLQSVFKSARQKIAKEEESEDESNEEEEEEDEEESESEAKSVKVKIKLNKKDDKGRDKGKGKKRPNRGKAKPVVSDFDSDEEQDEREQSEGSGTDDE
endpoint label: Dmax (%)

[[record]]
compound = "Cc1cnn(C2(C(=O)N(C)C3CCN(CC4CCN(c5ccc([C@H]6CCC(=O)NC6=O)cc5)CC4)CC3)CCN(c3cnnc(-c4ccccc4O)c3)CC2)c1"
endpoint_label = "Dmax"
val = 87.7

[[record]]
compound = "CN(C(=O)C1(c2ccccc2)CCN(c2cnnc(-c3ccccc3O)c2)CC1)C1CCN([C@H]2COC3(CCN(c4ccc([C@H]5CCC(=O)NC5=O)cc4)CC3)C2)CC1 (single isomer, unassigned)"
endpoint_label = "Dmax"
val = 84.9

[[record]]
compound = "O=C1CC[C@H](c2ccc(N3CCC(CCN4CCC(Oc5ccccc5)(C(=O)NCC5(c6ccccc6)CCN(c6cnnc(-c7ccccc7O)c6)CC5)CC4)CC3)cc2)C(=O)N1 (racemic)"
endpoint_label = "Dmax"
val = 87.4


====

molecular target: SMARCA4 (Homo sapiens, UniProt P51532); construct: endogenous in cells; assay: Cellular degradation assay, SMARCA4 (Table 1); type: cell-based
Sequence (P51532 whole entry, species assumed): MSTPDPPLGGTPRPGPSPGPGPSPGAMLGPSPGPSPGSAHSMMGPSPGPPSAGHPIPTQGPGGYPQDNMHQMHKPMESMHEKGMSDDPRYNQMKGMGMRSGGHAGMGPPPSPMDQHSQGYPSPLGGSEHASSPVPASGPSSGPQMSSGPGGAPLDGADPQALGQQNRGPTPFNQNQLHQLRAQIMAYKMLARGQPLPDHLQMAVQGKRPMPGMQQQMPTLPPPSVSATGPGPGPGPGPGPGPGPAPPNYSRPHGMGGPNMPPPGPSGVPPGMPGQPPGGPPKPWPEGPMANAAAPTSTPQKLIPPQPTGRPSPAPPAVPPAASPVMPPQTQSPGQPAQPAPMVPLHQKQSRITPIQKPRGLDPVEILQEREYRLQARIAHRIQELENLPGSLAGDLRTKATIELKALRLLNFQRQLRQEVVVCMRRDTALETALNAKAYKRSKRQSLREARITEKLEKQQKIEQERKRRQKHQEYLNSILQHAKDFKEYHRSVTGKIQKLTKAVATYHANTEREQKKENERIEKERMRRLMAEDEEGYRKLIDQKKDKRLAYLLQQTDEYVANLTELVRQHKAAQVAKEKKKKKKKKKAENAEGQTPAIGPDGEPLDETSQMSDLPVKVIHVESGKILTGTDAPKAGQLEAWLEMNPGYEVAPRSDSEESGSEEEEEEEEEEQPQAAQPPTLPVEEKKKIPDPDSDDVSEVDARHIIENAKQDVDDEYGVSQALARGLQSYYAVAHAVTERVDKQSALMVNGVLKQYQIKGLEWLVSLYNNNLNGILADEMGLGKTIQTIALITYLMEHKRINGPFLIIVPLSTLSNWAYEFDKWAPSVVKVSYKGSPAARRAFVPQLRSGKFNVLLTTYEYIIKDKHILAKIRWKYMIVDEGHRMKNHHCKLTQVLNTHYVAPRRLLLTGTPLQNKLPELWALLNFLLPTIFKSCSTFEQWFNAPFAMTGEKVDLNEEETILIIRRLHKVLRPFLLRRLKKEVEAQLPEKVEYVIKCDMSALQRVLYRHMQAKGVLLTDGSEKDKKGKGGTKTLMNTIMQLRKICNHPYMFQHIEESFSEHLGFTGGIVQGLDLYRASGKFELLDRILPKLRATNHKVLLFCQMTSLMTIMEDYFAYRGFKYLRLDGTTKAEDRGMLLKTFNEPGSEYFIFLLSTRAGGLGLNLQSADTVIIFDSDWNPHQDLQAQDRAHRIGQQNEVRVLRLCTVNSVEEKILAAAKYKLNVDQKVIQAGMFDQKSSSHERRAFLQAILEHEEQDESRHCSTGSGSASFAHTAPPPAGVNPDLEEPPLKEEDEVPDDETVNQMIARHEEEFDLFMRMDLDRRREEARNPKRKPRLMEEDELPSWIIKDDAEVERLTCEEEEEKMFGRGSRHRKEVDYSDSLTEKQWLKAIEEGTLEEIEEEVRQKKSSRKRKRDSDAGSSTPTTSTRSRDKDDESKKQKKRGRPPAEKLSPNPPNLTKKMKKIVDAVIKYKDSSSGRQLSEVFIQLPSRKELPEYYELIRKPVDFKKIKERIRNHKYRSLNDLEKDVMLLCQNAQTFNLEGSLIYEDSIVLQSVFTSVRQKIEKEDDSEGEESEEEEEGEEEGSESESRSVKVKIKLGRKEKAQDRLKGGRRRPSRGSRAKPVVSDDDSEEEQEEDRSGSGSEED
endpoint label: DC50

[[record]]
compound = "Cc1ccn(C2(C(=O)NC3CCN(CC4CCN(c5ccc([C@H]6CCC(=O)NC6=O)cc5)CC4)C4(CCC4)C3)CCN(c3cnnc(-c4ccccc4O)c3)CC2)n1 (stereo partly drawn) [Example 162]"
val = "25.9 nM"

[[record]]
compound = "O=C1CCC(c2ccc(N3C[C@@H]4CN(CC5CCN(C(=O)C6(c7ccccc7)CCN(c7cnnc(-c8ccccc8O)c7)CC6)CC5)C[C@H]4C3)cc2)C(=O)N1 (mixture of isomers) [Example 160]"
val = "104 nM"

[[record]]
compound = "O=C1CC[C@@H](c2ccc(N3CCC(CN4CCC5(C4)CN(C(=O)C4(c6ccccc6)CCN(c6cnnc(-c7ccccc7O)c6)CC4)C5)CC3)cc2)C(=O)N1 [Example 9]"
val = "6720 nM"


====

biological target: SMARCA2 (Homo sapiens); construct: endogenous in cells; assay: SMARCA2 Cellular Degradation Assay (Western blot analysis on Jess platform); assay type: cell-based; conditions: cellular degradation
Could you mark each record Yes if its Dmax falls strictly under 80%, and No if it equals or exceeds it?

[[record]]
compound = "O=C1CC[C@H](c2ccc(N3CCC(CN4CCC5CN(C(=O)C6(c7ccccc7)CCN(c7cnnc(-c8ccccc8O)c7)CC6)C5C4)CC3)cc2)C(=O)N1 (some centres unmarked) [Example 51]"
target_or_test_system = "SMARCA2 (Homo sapiens)"
class_assignment = "Yes"

[[record]]
compound = "Cn1nc(N2CCC(=O)NC2=O)c2cccc(N3CCC(CN4CC5(C4)CN(C(=O)C4(c6ccccc6)CCN(c6cnnc(-c7ccccc7O)c6)CC4)C5)CC3)c21 [Example 123]"
target_or_test_system = "SMARCA2 (Homo sapiens)"
class_assignment = "Yes"

[[record]]
compound = "O=C1CC[C@H](c2ccc(N3CCC(CN4CCC5(CC4)CN(C(=O)C4(c6ccccc6)CCN(c6cnnc(-c7ccccc7O)c6)CC4)C5)CC3)nc2)C(=O)N1 [Example 189]"
target_or_test_system = "SMARCA2 (Homo sapiens)"
class_assignment = "No"

[[record]]
compound = "O=C1CCC(c2ccc(N3CCC(CN4CC5(C4)CN(C(=O)C4(Cc6ccccc6)CCN(c6cnnc(-c7ccccc7O)c6)CC4)C5)CC3)cc2)C(=O)N1 (racemic) [Example 26]"
target_or_test_system = "SMARCA2 (Homo sapiens)"
class_assignment = "Yes"

[[record]]
compound = "O=C1CCC(c2ccc(N3CCC4(CC3)COC(CN3CC5(CCN(C(=O)C6(c7ccccc7)CCN(c7cnnc(-c8ccccc8O)c7)CC6)CC5)C3)C4)cc2)C(=O)N1 (racemic) [Example 127]"
target_or_test_system = "SMARCA2 (Homo sapiens)"
class_assignment = "Yes"

[[record]]
compound = "CN(C(=O)C1(c2cc3ccccn3n2)CCN(c2cnnc(-c3ccccc3O)c2)CC1)C1CCN(CCC2CCN(c3ccc(C4CCC(=O)NC4=O)cc3)CC2)CC1 (racemic) [Example 77]"
target_or_test_system = "SMARCA2 (Homo sapiens)"
class_assignment = "No"

[[record]]
compound = "O=C1CC[C@H](c2ccc(N3CCC(CN4CC5CC(NC(=O)C6(c7ccccc7)CCN(c7cnnc(-c8ccccc8O)c7)CC6)C4C5)CC3)cc2)C(=O)N1 (some centres unmarked) [Example 47]"
target_or_test_system = "SMARCA2 (Homo sapiens)"
class_assignment = "Yes"

[[record]]
compound = "COC1(C(=O)NCC2(c3ccccc3)CCN(c3cnnc(-c4ccccc4O)c3)CC2)CCN(CCC2CCN(c3ccc([C@H]4CCC(=O)NC4=O)cc3)CC2)CC1 (racemic) [Example 83]"
target_or_test_system = "SMARCA2 (Homo sapiens)"
class_assignment = "No"

[[record]]
compound = "O=C1CC[C@H](c2ccc(N3CCC(CN[C@H]4CC[C@H](NC(=O)C5(c6ccccc6)CCN(c6cnnc(-c7ccccc7O)c6)CC5)CC4)CC3)cc2)C(=O)N1 (racemic) [Example 175]"
target_or_test_system = "SMARCA2 (Homo sapiens)"
class_assignment = "Yes"

